# Tested on: BDF1 mice, P388 leukemia ip, median survival T/C
# method: NCI In Vivo Anticancer Drug Screen. Data for tumor model P388 Leukemia (intraperitoneal) in B6D2F1 (BDF1) mice
# measurement conditions: endpoint: median survival time; dose: 100.0 mg/kg/injection; schedule: Q01DX009 (ip); vehicle: saline with Tween-80; higher = longer survival
Inconclusive results and toxic doses are left out.
measurement kind: T/C

Request: Reported T/C, compound CC(C)CNS(=O)(=O)c1ncnc2nc[nH]c12 : ____
Response: 109 % of control

Request: Same thing, different compound: COc1ccc2c(c1)CCC1(C)C2=CC(=O)/C1=C\[O-].COc1ccc2c(c1)CCC1(C)C2=CC(=O)/C1=C\[O-].[Cu+2] (stereo not given)
Response: 95 % of control

Request: And what about the compound C=CCCCCCCCCC(=O)NC[n+]1cccc(O)c1 ?
Response: 100 % of control

Request: Next: CC(C)=NN1C(=O)c2ccccc2C1=O
Response: 100 % of control

Request: Next compound up: CCOC(=O)C(Cc1ccc(N(CCCl)CCCl)cc1)NC(=O)C(Cc1ccccc1)NC=O (stereo not given)
Response: 90 % of control

----------
# Test system: BDF1 mice, P388 leukemia ip, median survival T/C
# method: NCI In Vivo Anticancer Drug Screen. Data for tumor model P388 Leukemia (intraperitoneal) in B6D2F1 (BDF1) mice
# measurement conditions: endpoint: median survival time; dose: 50.0 mg/kg/injection; schedule: Q04DX003 (ip); vehicle: Klucel (hydroxypropylcellulose) (HPC); higher = longer survival
Toxic doses and inconclusive results are not listed.
Task for the reader: assign each of the following compounds its reported T/C.

Request: Entry under review: CN(C)C(=S)SSC(=S)N(C)C . Reported T/C?
Response: 118 % of control

Request: Would you mind doing Oc1ccc(C2CCCCC2)c(O)c1 as well?
Response: 91 % of control

Request: And the next one, Clc1c(CI)ccc(CI)c1Cl ?
Response: 110 % of control

Request: Can you check CCCCc1c(C(=O)OCC)oc(C(=O)OCC)c(CCCC)c1=O next?
Response: 115 % of control

Request: Here is the next compound: c1ccc(OCc2ccc(COc3ccccc3)cc2)cc1
Response: 104 % of control

Request: Same read-out for O=C1C(Br)=CC(=C2C=C(Br)C(=O)C(Br)=C2)C=C1Br ?
Response: 113 % of control

Request: What would you report for CO/N=C/c1ccc([N+](=O)[O-])s1 ?
Response: 104 % of control

Request: Note, next up: Nc1ccc(N=Nc2ccccc2)c(N)n1
Response: 100 % of control

Request: // same read-out, input: CN1C(C)(C)CC(O)(C(O)(c2ccccc2)c2ccccc2)CC1(C)C
Response: 113 % of control

Request: Repeat with [O-]c1on[n+](C2CCCCC2)c1-c1ccccc1
Response: 105 % of control

Request: One more compound: COc1cccc(CC(=O)C(=O)O)c1
Response: 100 % of control

Request: Also need CCn1cnc2c(=S)nc(N)[nH]c21 , thanks.
Response: 100 % of control

Request: Similarly, C[N+]12CCCc3cc(CO)cc(c31)CCC2 ?
Response: 119 % of control

Request: Okay, and COC(=O)c1cc([N+](=O)[O-])c(Cl)c([N+](=O)[O-])c1 ?
Response: 105 % of control

Request: Also, S=C(NNC(=S)Nc1ccc(Cl)cc1)NNc1ccccc1 please.
Response: 104 % of control

Request: Could you do the same for O=C(c1ccccc1)C1CCCCC1 , please?
Response: 100 % of control

----------
# Test system: BDF1 mice, P388 leukemia ip, median survival T/C
# method: NCI In Vivo Anticancer Drug Screen. Data for tumor model P388 Leukemia (intraperitoneal) in B6D2F1 (BDF1) mice
# measurement conditions: endpoint: median survival time; dose: 25.0 mg/kg/injection; schedule: Q01DX009 (ip); vehicle: saline with Tween-80; higher = longer survival
Inconclusive results and toxic doses are left out.
Can you tell me T/C for the items I'm about to list?

Request: Bench note: what T/C did CCOc1nc(S(=O)(=O)CC)ncc1C show?
Response: 92 % of control

Request: Can you handle CC1=Nc2ccccc2N=C(C)C1 next?
Response: 100 % of control

Request: O=c1cc(O)ccn1CCc1cccs1
Response: 109 % of control

Request: // next record CCCCN(CCCC)CC(O)c1cc(-c2ccc(Cl)c(Cl)c2)cc2cc(Cl)ccc12 (stereo not given)
Response: 99 % of control

Request: Also need O=Cc1nc2ccccc2[nH]1 , thanks.
Response: 101 % of control

Request: Quick one: CCOC(=O)CSc1nc2nc(Cl)c(Cl)nc2[nH]1
Response: 88 % of control

Request: Okay, and NC(=S)c1ncc(N)s1 ?
Response: 89 % of control

Request: CN(C)CCOc1cccc(OCCN(C)C)n1 , same question.
Response: 100 % of control

Request: And what about the compound O=C(C=C(C(F)(F)F)C(F)(F)F)c1ccc(Cl)cc1 ?
Response: 118 % of control

Request: Now consider CC(C)=NN1C(=O)c2ccccc2C1=O .
Response: 101 % of control

Request: Proceed to CN(C(=O)/C=C/C(=O)O)c1ccccc1
Response: 109 % of control

Request: Follow-up entry: CCOC(=O)c1cnn2c(SC)ncnc12
Response: 111 % of control

Request: Do the same for Cc1ccc2c(Nc3ccc(NS(C)(=O)=O)cc3)c3ccccc3nc2c1C please
Response: 114 % of control

Request: Okay, and O=CC(OC(=O)c1ccccc1)C(OC(=O)c1ccccc1)C(COC(c1ccccc1)(c1ccccc1)c1ccccc1)OC(=O)c1ccccc1 (stereo not given) ?
Response: 110 % of control

Request: CCC(=O)NC(C(=O)NC(C(=O)NC(CC(C)C)C(O)CC(=O)NC(C)C(=O)NC(CC(C)C)C(O)CC(=O)O)C(C)C)C(C)C (stereo not given) , same question.
Response: 109 % of control

Request: Another compound to check: Clc1c(CI)ccc(CI)c1Cl
Response: 90 % of control

Request: Now the compound Cc1nc[nH]c1[N+](=O)[O-]
Response: 100 % of control

Request: Record: Nc1ncc(C(=O)O)c(N)n1
Response: 111 % of control

Request: Same read-out for O=[N+]([O-])OCc1c(Cl)nc(Cl)c(Cl)c1Cl ?
Response: 115 % of control

Request: Same for CCCCCCCCCCCCOB(OCCCCCCCCCCCC)OCCCCCCCCCCCC
Response: 100 % of control

----------
# Test system: BDF1 mice, P388 leukemia ip, median survival T/C
# method: NCI In Vivo Anticancer Drug Screen. Data for tumor model P388 Leukemia (intraperitoneal) in B6D2F1 (BDF1) mice
# measurement conditions: endpoint: median survival time; dose: 50.0 mg/kg/injection; schedule: Q04DX003 (ip); vehicle: saline; higher = longer survival
Toxic doses and inconclusive results are not listed.
measurement kind: T/C

Request: Which T/C value is on record for Nc1ccc(C(=O)O)c([N+](=O)[O-])c1 ?
Response: 99 % of control

Request: Now consider Cc1cc([N+](=O)[O-])cc([N+](=O)[O-])c1OC(=O)c1ccc(N=C(N)N)cc1 .
Response: 109 % of control

Request: // same read-out, input: C=Cn1ccnc1C.C=Cn1ccnc1C.CC(=O)CC(C)=O.CC(=O)CC(C)=O.[Co]
Response: 117 % of control

Request: Next up: Cc1nc2ccc(O)cc2cc1CBr
Response: 107 % of control

Request: # iterate: Cc1cc(=O)cc(C(=O)O)o1
Response: 100 % of control

Request: Quick one: NCCc1ccc(OCc2ccccc2)c(OCc2ccccc2)c1
Response: 100 % of control

----------
Field: T/C. Provide a value for each of the compounds that follow.
# System: BDF1 mice, P388 leukemia ip, median survival T/C
# method: NCI In Vivo Anticancer Drug Screen. Data for tumor model P388 Leukemia (intraperitoneal) in B6D2F1 (BDF1) mice
# measurement conditions: endpoint: median survival time; dose: 50.0 mg/kg/injection; schedule: Q01DX009 (ip); vehicle: water; higher = longer survival
Inconclusive results and toxic doses are left out.

Request: So what does the record say about T/C for COc1cc2cc3c4cc(OC)c(OC)cc4cc[n+]3c(C)c2cc1OC ?
Response: 190 % of control

Request: Same question, COC(=O)Cc1c[nH]c(=O)[nH]c1=O this time
Response: 117 % of control

Request: Now try Cc1cc(=O)c2cc(N)ccc2[nH]1 .
Response: 94 % of control

Request: Try CC[N+](CC)(CC)CCCC[N+](CC)(CC)CC next.
Response: 100 % of control

Request: Try the compound C/C=C/C(OCC)OCC
Response: 100 % of control
